# System: H9c2
# TEST_METHOD_NOTES: protection of cardiomyocytes from stress damage, SAR follow-up, cell-based, panel, H9c2 and HL-1, H2O2, 2-deoxyglucose, ATP luminescence (AID 651642)
# TEST_SETTINGS: H9c2/HL-1 cardiomyocyte H2O2 oxidative damage, mean of runs, with H2O2
Activity calls are given as the source filed them.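 Rule for the calls: active = average half-effect concentration of 10 µM or less in every one of the four cell panels; inactive = the rest.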
METRIC: outcome

Guide cases for outcome, answers given:
Quick one: give measured outcome for `CCOC(=O)c1ccc(NC(=O)c2cc(-c3cc(OC)c(OC)c(OC)c3)nc3ccccc23)cc1`
inactive

Quick one: give measured outcome for COc1ccc2c(c1OC)C(=O)N1c3ccccc3C(=O)N(Cc3ccccc3Cl)C21 (stereo not drawn)
inactive

Quick one: give measured outcome for COc1ccc2c(c1OC)C(=O)N1c3ccccc3C(=O)N(Cc3cccc(C)c3)C21 (stereo not drawn)
inactive

Quick one: give measured outcome for `COc1cc(-c2cc(C(=O)Nc3cccc(C(=O)O)c3)c3ccccc3n2)cc(OC)c1OC`
inactive

Quick one: give measured outcome for COc1ccc2c(c1OC)C(=O)N1c3ccccc3C(=O)N(Cc3ccncc3)C21 (stereo not drawn)
inactive

# per-item lookup of outcome; items listed below
1. COc1cc(-c2cc(C(=O)Nc3cccc(C(C)=O)c3)c3cccc(Cl)c3n2)cc(OC)c1OC
2. COc1ccc2c(c1OC)C(=O)N1c3ccccc3C(=O)N(Cc3cccc(Cl)c3Cl)C21 (stereo not drawn)
3. COc1ccccc1CN1C(=O)c2ccccc2N2C(=O)c3c(ccc(OC)c3OC)C12 (stereo not drawn)
4. COc1cc(-c2cc(C(=O)Nc3cccc(C(=O)Nc4ccccc4)c3)c3ccccc3n2)cc(OC)c1OC
5. CCOC(=O)c1cccc(NC(=O)c2cc(-c3cc(OC)c(OC)c(OC)c3)nc3ccccc23)c1

["inactive", "inactive", "inactive", "active", "inactive"]

# per-item lookup of outcome; items listed below
1. COc1cc(-c2cc(C(=O)NCC(=O)Nc3ccc(C(C)=O)cc3)c3ccccc3n2)cc(OC)c1OC
2. COc1ccc2c(c1OC)C(=O)N1c3ccccc3C(=O)N(Cc3ccccc3F)C21 (stereo not drawn)
3. CCNC(=O)c1cccc(NC(=O)c2cc(-c3cc(OC)c(OC)c(OC)c3)nc3ccccc23)c1
4. COc1cc(-c2cc(C(=O)NCC(=O)Nc3ccc(C(C)=O)cc3)c3cc(F)ccc3n2)cc(OC)c1OC
5. COc1cc(-c2cc(C(=O)NCC(=O)Nc3cccc(C(C)=O)c3)c3cc(C)ccc3n2)cc(OC)c1OC

inactive
inactive
active
inactive
inactive

====

# Tested on: H9c2
# TEST_METHOD_NOTES: protection of cardiomyocytes from stress damage, SAR follow-up, cell-based, panel, H9c2 and HL-1, H2O2, 2-deoxyglucose, ATP luminescence (AID 651642)
# TEST_SETTINGS: H9c2/HL-1 cardiomyocyte H2O2 oxidative damage, mean of runs, with H2O2
The source made the active and inactive calls.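 Rule for the calls: active = average half-effect concentration of 10 µM or less in every one of the four cell panels; inactive = the rest.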
Choose one outcome from this list and give only that: 1 = active, -1 = inactive

// below: answered molecules
Each molecule tested received a call. Report the one for `COc1cc(-c2cc(C(=O)Nc3cccc(-c4nn[nH]n4)c3)c3ccccc3n2)cc(OC)c1OC` .
-1

Each molecule tested received a call. Report the one for `CCOC(=O)c1cccc(NC(=O)c2cc(-c3cc(OC)c(OC)c(OC)c3)nc3cc(Cl)ccc23)c1` .
-1

Each molecule tested received a call. Report the one for `CCOC(=O)c1cccc(NC(=O)CNC(=O)c2cc(-c3cc(OC)c(OC)c(OC)c3)nc3ccc(C)cc23)c1` .
1

Each molecule tested received a call. Report the one for `COc1cc(-c2cc(C(=O)NCC(=O)Nc3cccc(C(C)=O)c3)c3cc(Br)ccc3n2)cc(OC)c1OC` .
1

Each molecule tested received a call. Report the one for `COc1cc(-c2cc(C(=O)Nc3cccc(C(=O)NC4CC4)c3)c3ccccc3n2)cc(OC)c1OC` .
1

Each molecule tested received a call. Report the one for `CCOC(=O)c1cccc(NC(=O)CNC(=O)c2cc(-c3cc(OC)c(OC)c(OC)c3)nc3ccc(Br)cc23)c1` .
1

Each molecule tested received a call. Report the one for `CCOC(=O)c1cccc(NC(=O)CNC(=O)c2cc(-c3cc(OC)c(OC)c(OC)c3)nc3ccccc23)c1` .
-1

Each molecule tested received a call. Report the one for `CCOC(=O)c1ccccc1NC(=O)c1cc(-c2cc(OC)c(OC)c(OC)c2)nc2ccccc12` .
-1

Each molecule tested received a call. Report the one for COc1ccc2c(c1OC)C(=O)N1c3ccccc3C(=O)N(Cc3ccccc3Br)C21 (stereo unspecified) .
-1

Each molecule tested received a call. Report the one for `CCOC(=O)c1cccc(NC(=O)c2cc(-c3cc(OC)c(OC)c(OC)c3)nc3ccc(C)cc23)c1` .
1

New cases:
Each molecule tested received a call. Report the one for COc1ccc2c(c1OC)C(=O)N1c3ccccc3C(=O)N(Cc3cccc(F)c3)C21 (stereo unspecified) .
-1

Each molecule tested received a call. Report the one for COc1ccc2c(c1OC)C(=O)N1c3ccccc3C(=O)N(Cc3ccccc3C)C21 (stereo unspecified) .
-1

Each molecule tested received a call. Report the one for `COc1cc(-c2cc(C(=O)NCC(=O)Nc3ccc(C(C)=O)cc3)c3cc(C)ccc3n2)cc(OC)c1OC` .
1

Each molecule tested received a call. Report the one for COc1ccc2c(c1OC)C(=O)N1c3ccccc3C(=O)N(Cc3ccc(C)cc3C)C21 (stereo unspecified) .
-1

Each molecule tested received a call. Report the one for `COc1cc(-c2cc(C(=O)NCC(=O)Nc3cccc(C(C)=O)c3)c3ccccc3n2)cc(OC)c1OC` .
1

Each molecule tested received a call. Report the one for COc1ccc2c(c1OC)C(=O)N1c3ccccc3C(=O)N(Cc3ccc(F)cc3)C21 (stereo unspecified) .
-1

Each molecule tested received a call. Report the one for `COc1ccc2nc(-c3cc(OC)c(OC)c(OC)c3)cc(C(=O)Nc3cccc(C(C)=O)c3)c2c1` .
-1

Each molecule tested received a call. Report the one for `CCOC(=O)c1cccc(NC(=O)c2cc(-c3cc(OC)c(OC)c(OC)c3)nc3c(Cl)cccc23)c1` .
-1

Each molecule tested received a call. Report the one for COc1ccc2c(c1OC)C(=O)N1c3ccccc3C(=O)N(Cc3c(Cl)cccc3Cl)C21 (stereo unspecified) .
-1

Each molecule tested received a call. Report the one for `CCOC(=O)c1cccc(NC(=O)c2cc(-c3cc(OC)c(OC)c(OC)c3)nc3ccc(Br)cc23)c1` .
-1

Each molecule tested received a call. Report the one for `COc1ccc2nc(-c3cc(OC)c(OC)c(OC)c3)cc(C(=O)NCC(=O)Nc3cccc(C(C)=O)c3)c2c1` .
-1

Reference for the values: PubChem BioAssay AID651642
